assayedSystem: Recombinant human JAK3 catalytic domain (amino acids 781-1124) (Homo sapiens, UniProt P52333)
Sequence (P52333 781-1124): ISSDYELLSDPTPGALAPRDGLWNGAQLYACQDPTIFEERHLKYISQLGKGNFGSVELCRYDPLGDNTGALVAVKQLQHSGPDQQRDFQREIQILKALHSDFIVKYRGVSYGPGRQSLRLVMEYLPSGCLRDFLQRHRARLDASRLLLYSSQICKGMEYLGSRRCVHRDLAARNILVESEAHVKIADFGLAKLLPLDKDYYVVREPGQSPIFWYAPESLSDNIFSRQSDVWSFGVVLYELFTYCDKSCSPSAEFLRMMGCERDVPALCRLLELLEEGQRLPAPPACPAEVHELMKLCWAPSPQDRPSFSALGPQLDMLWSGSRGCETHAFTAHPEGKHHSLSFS
methodDescription: JAK3 inhibition assay
Below is a list of entries, each paired with its recorded IC50 value.
Numbers only here, please. The scale is nM.

CN(c1cc(Nc2cc(N)ncn2)c2ncn(C)c2n1)C12CC(C1)C2 [Compound 18]: 187

Below: the item to evaluate.
Q: // returns reported IC50 for input Cc1cc(C#N)ncc1Oc1cc(Nc2cc(NCC3COCCO3)ncn2)c2ncn(C)c2n1 (centres unmarked) [Compound 35]
Result: 452

###

assayedSystem: Recombinant human TYK2 catalytic domain (amino acids 871-1187) (Homo sapiens)
Construct: catalytic domain (amino acids 871-1187)
methodDescription: TYK2 radioactive assay polyGT substrate; further: 0.1 µM ATP
Assay type: biochemical
pIC50: −log10 of the molar value.
Rule: pIC50 under 8 gives Not met, otherwise Met.

Cc1cc(C#N)ncc1Oc1cc(Nc2ccc(C(=O)N3CCN(C(C)C)CC3)cn2)c2ncn(C)c2n1: Met
CNC(=O)c1ccc(Nc2cc(Oc3cnc(C#N)cc3C)nc3c2ncn3C)cn1: Not met
CC(C)C(Nc1cc(Nc2cc(N)ncn2)c2ncn(C)c2n1)C(F)(F)F (centres unmarked): Met
Cc1cc(C#N)ncc1Oc1cc(Nc2ccc(C(=O)N3CC[C@@H](O)C3)cn2)c2ncn(C)c2n1: Met

Below: the item to evaluate.
Q: Answer whether pIC50 of Cc1cc(C#N)ncc1Oc1cc(Nc2ccc(C(=O)N3CC(N(C)C)C3)cn2)c2ncn(C)c2n1 is greater than or equal to 8.
Result: Met

###

Tested on: IL-12 activation of STAT4 in NK-92 cells
methodDescription: IL-12 activation of STAT4 in NK-92 cells using AphaLISA SureFire technology
Format: cell-based
conditionSet: Homo sapiens, NK92; IL-12 activation of STAT4 in NK-92 cells, AlphaLISA SureFire; average IC50; read-out: IL12 pSTAT4 IC50
Experimental: IL-2 is added freshly to the medium with each medium refreshment step. Cells are cultured in a humidified incubator at 37° C. 5% CO2. […] After 30 min of cytokine stimulation the cells are lysed by addition of 15 μL 5× lysis buffer (supplemented with the AlphaLISA kit). […] AlphaLISA signal (relative light units) is measured using an Envision (Perkin Elmer). The percentage inhibition is calculated as: […] RLU(trigger/veh): Relative lumescent signal determined in presence of vehicle and trigger […]
pIC50: −log10 of the molar value.
Rule: pIC50 under 7 gives FALSE, otherwise TRUE.

Example entries and their recorded answers appear below.
Cc1cc(C#N)ncc1Oc1cc(Nc2ccc(C(=O)N3CCNCC3)cn2)c2ncn(C)c2n1 [Compound 178]: FALSE
Cc1cc(C#N)ncc1Oc1cc(Nc2ccc(C(=O)N3C[C@@H](O)[C@H](N(C)C)C3)cn2)c2ncn(C)c2n1 [Compound 153]: FALSE
Cc1cc(C#N)ncc1Oc1cc(Nc2ccc(C(=O)N3CC[C@@H](N(C)C)C3)cn2)c2ncn(C)c2n1 [Compound 107]: FALSE
Cc1cc(C#N)ncc1Oc1cc(Nc2cnn(CCN3CCOCC3)c2)c2ncn(C)c2n1 [Compound 186]: FALSE

Q: Answer whether pIC50 of Cc1cc(C#N)ncc1Oc1cc(Nc2ccc(N3CCOC(C(C)C)C3)nn2)c2ncn(C)c2n1 (stereo in doubt) [Compound 173] is greater than or equal to 7.
Result: TRUE

###

assayedSystem: Recombinant human JAK2 (catalytic domain, amino acids 808-1132) (Homo sapiens, UniProt O60674)
Construct: catalytic domain, amino acids 808-1132
Sequence (O60674 808-1132): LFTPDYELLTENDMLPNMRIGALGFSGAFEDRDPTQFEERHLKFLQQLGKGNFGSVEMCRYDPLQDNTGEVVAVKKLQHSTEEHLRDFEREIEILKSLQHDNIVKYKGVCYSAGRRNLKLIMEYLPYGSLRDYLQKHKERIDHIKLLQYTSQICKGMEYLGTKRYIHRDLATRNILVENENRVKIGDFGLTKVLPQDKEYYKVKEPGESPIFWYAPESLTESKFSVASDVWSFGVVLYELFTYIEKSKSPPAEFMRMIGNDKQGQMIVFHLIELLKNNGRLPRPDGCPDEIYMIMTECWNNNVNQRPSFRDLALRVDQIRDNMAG
methodDescription: JAK2 inhibition assay; further: 0.7 µM ATP
conditionSet: read-out: JAK2 potency IC50
Protocol: After 60 min at room temperature, reactions are stopped by adding 20 μL/well of detection mixture (1× detection buffer (Perkin Elmer, catalog number CR97-100) with 0.5 nM Europium-anti-phosphotyrosine (PT66) (Perkin Elmer, catalog number AD0068/AD0069) and 10 mM EDTA). […] Kinase activity is calculated by subtracting the ratio obtained in the presence of a positive control inhibitor (1 μM staurosporine) from the ratio obtained in the presence of vehicle. […]
pIC50: −log10 of the molar value.
Rule: pIC50 under 8 gives not satisfied, otherwise satisfied.

Example entries and their recorded answers appear below.
CC(Nc1cc(Nc2cc(N)ncn2)c2ncn(C)c2n1)C1CCC1 (centres unmarked): not satisfied
COCCNc1cc(Nc2cc(Oc3cnc(C#N)cc3C)nc3c2ncn3C)ncn1: not satisfied
Cc1cc(C#N)ncc1Oc1cc(Nc2ccc(N3CCC(N(C)C)CC3)cn2)c2ncn(C)c2n1: not satisfied
Cc1cc(C(F)(F)F)ncc1Oc1cc(Nc2cc(N)ncn2)c2ncn(C)c2n1: not satisfied
COc1ccc(Nc2cc(Oc3cnc(C#N)cc3C)nc3c2ncn3C)nc1: not satisfied
C[C@H](C1CC1)N(C)c1cc(Nc2cc(N)ncn2)c2ncn(C)c2n1: not satisfied

Q: Answer whether pIC50 of Cc1cc(C#N)ncc1Oc1cc(Nc2ccc(N3CCC(CO)CC3)cn2)c2ncn(C)c2n1 is greater than or equal to 8.
Result: not satisfied

Q: Answer whether pIC50 of CN(c1cc(Nc2cc(N)ncn2)c2ncn(C)c2n1)[C@@H]1CCC[C@@H](C#N)C1 (racemic) is greater than or equal to 8.
Result: satisfied

Q: Answer whether pIC50 of Cc1cc(C#N)ncc1N(c1cc(Nc2cc(N)ncn2)c2ncn(C)c2n1)C1CC1 is greater than or equal to 8.
Result: satisfied

Q: Answer whether pIC50 of CCNC(=O)c1ccc(Nc2cc(Oc3cnc(C#N)cc3C)nc3c2ncn3C)cn1 is greater than or equal to 8.
Result: not satisfied

Q: Answer whether pIC50 of CN(c1cc(Nc2cc(N)ncn2)c2ncn(C)c2n1)C1CCOCC1(C)C (centres unmarked) is greater than or equal to 8.
Result: satisfied

Q: Answer whether pIC50 of COCCCNC(=O)c1ccc(Nc2cc(Oc3cnc(C#N)cc3C)nc3c2ncn3C)nc1 is greater than or equal to 8.
Result: not satisfied

Q: Answer whether pIC50 of Cc1cc(C#N)ncc1Nc1cc(Nc2ccc(C(=O)N(C)C)cn2)c2ncn(C)c2n1 is greater than or equal to 8.
Result: not satisfied

###

assayedSystem: Recombinant human TYK2 catalytic domain (amino acids 871-1187) (Homo sapiens, UniProt P29597)
Construct: catalytic domain (amino acids 871-1187)
Sequence (P29597 871-1187): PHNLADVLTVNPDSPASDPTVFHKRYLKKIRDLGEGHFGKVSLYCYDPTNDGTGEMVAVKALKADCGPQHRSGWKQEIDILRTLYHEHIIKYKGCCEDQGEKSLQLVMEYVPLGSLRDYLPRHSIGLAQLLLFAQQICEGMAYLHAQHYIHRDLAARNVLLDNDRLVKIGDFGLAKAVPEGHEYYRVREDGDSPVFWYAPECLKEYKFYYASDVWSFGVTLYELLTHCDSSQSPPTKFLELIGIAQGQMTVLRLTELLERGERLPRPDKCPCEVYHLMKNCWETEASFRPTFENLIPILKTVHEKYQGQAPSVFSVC
methodDescription: TYK2 ADPglo kinase assay; further: 12 µM ATP
Format: biochemical
Below is a list of entries, each paired with its recorded IC50 value.
Numbers only here, please. The scale is nM.

Cc1cc(C#N)ncc1Oc1cc(Nc2ccc(N3C[C@@H](C)O[C@H](C)C3)nn2)c2ncn(C)c2n1 [Compound 168]: 2.39
Cc1cc(C#N)ncc1Oc1cc(Nc2ccc(N3CCCOCC3)nn2)c2ncn(C)c2n1: 2.55
Cc1cc(C#N)ncc1Oc1cc(Nc2ccc(N3CCOC(C)(C)C3)nn2)c2ncn(C)c2n1: 2.64
Cc1cc(C#N)ncc1Oc1cc(Nc2ccc(N3CCOC(C#N)C3)nn2)c2ncn(C)c2n1 (stereo not drawn): 0.88
Cc1cc(C#N)ncc1Oc1cc(Nc2ccc(N3CCO[C@H](CO)C3)nn2)c2ncn(C)c2n1: 1.09
Cn1cnc2c(Nc3ccc(S(C)(=O)=O)cn3)cc(NC(C3CC3)C(F)(F)F)nc21 (stereo not drawn): 0.58

Q: // returns reported IC50 for input Cc1cc(C#N)ncc1Oc1cc(Nc2ccc(N3CCOC(CO)C3)nn2)c2ncn(C)c2n1 (stereo not drawn)
Result: 1.47

Q: // returns reported IC50 for input Cc1cc(C#N)ncc1Oc1cc(Nc2ccc(C(=O)N3CCN(C)CC3)nn2)c2ncn(C)c2n1
Result: 1.1

###

assayedSystem: Recombinant human JAK3 catalytic domain (amino acids 781-1124) (Homo sapiens)
methodDescription: JAK3 inhibition assay
Below is a list of entries, each paired with its recorded pIC50 value.
// scale note: pIC50 = -log10(conc_M); give the bare number

Cc1cc(C#N)ncc1Oc1cc(Nc2ccc(S(=O)(=O)C(F)F)cc2)c2ncn(C)c2n1: 5.56
Cc1cc(C#N)ncc1Oc1cc(Nc2ccc(OC3CCN(C)CC3)cn2)c2ncn(C)c2n1: 6.35
Cc1cc(C#N)ncc1Oc1cc(Nc2ccc(N3CCOC[C@@H]3C)cn2)c2ncn(C)c2n1: 6.32
COCC1CN(C(=O)c2ccc(Nc3cc(Oc4cnc(C#N)cc4C)nc4c3ncn4C)nn2)C1: 5.69
COCCCN(c1cc(Nc2cc(N)ncn2)c2ncn(C)c2n1)c1cnc(C#N)cc1C: 6.11
COCCCS(=O)(=O)c1ccc(Nc2cc(Oc3cnc(C#N)cc3C)nc3c2ncn3C)cc1: 5.97
C[C@H]1COCC[C@@H]1N(C)c1cc(Nc2cc(N)ncn2)c2ncn(C)c2n1: 6.63

Below: the item to evaluate.
Q: // returns reported pIC50 for input Cc1cc(C#N)ncc1Oc1cc(Nc2ccc(N3CCC(N(C)C)CC3)cn2)c2ncn(C)c2n1
Result: 6.40
